Values from ChEMBL document CHEMBL1154863

Assay Target: Neuronal acetylcholine receptor; alpha4/beta2 (Rattus norvegicus, UniProt P09483+P12390)
Sequence (P09483 whole entry): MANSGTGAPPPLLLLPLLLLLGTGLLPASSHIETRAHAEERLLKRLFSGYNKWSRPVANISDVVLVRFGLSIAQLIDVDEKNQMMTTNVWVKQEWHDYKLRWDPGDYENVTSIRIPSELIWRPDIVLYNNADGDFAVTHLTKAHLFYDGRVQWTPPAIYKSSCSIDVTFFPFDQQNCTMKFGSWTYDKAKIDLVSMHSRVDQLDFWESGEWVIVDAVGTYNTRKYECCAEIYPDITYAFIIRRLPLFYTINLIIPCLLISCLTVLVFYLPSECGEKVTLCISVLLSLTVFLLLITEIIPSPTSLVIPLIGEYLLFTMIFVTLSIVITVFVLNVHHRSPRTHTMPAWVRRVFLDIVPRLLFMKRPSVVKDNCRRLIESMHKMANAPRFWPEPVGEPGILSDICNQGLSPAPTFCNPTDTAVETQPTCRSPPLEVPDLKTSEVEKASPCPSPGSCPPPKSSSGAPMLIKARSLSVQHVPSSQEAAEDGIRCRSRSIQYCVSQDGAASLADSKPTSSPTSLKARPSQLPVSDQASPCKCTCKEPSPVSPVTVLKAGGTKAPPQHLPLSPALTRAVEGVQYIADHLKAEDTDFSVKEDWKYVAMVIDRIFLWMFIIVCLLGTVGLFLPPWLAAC
Sequence (P12390 whole entry): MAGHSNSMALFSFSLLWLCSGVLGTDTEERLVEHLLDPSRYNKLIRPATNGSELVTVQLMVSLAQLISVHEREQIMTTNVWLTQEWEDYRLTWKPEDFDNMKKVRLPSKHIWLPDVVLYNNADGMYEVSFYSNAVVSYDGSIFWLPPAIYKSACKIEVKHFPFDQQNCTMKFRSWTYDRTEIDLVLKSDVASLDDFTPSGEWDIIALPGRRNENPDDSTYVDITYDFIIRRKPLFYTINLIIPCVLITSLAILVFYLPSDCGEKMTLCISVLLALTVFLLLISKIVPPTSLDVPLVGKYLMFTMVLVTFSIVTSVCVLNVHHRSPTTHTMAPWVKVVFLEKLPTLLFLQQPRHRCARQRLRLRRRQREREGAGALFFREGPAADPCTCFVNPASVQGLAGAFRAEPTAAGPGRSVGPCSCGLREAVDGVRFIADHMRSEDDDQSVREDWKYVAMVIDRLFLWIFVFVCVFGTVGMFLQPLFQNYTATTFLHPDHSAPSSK
Experiment Notes: Displacement of [3H]epibatidine from alpha4beta2 nAChR in rat cerebral cortex after 4 hrs by scintillation counting
Recorded Endpoint: pKi
One number for each entry, as −log10 of the molar value.

Solved cases (10 shown):
| Structure Smiles String | pKi |
| --- | --- |
| Nc1cccc(-c2cc([C@H]3C[C@@H]4CC[C@H]3N4)cnc2Cl)c1 | 10.77 |
| COc1cccc(-c2cc([C@H]3C[C@@H]4CC[C@H]3N4)cnc2Cl)c1 | 10.72 |
| O=[N+]([O-])c1ccc(-c2cc([C@H]3C[C@@H]4CC[C@H]3N4)cnc2Cl)cc1 | 10.82 |
| CN(C)c1cccc(-c2cc([C@H]3C[C@@H]4CC[C@H]3N4)cnc2Cl)c1 | 11.05 |
| Clc1ccc(-c2cc([C@H]3C[C@@H]4CC[C@H]3N4)cnc2Cl)cc1 | 10.41 |
| O=[N+]([O-])c1cccc(-c2cc([C@H]3C[C@@H]4CC[C@H]3N4)cnc2Cl)c1 | 11.10 |
| Clc1ncc([C@H]2C[C@@H]3CC[C@H]2N3)cc1-c1ccccc1 | 10.68 |
| Fc1cccc(-c2cc([C@H]3C[C@@H]4CC[C@H]3N4)cnc2Cl)c1 | 10.92 |
| COc1ccc(-c2cc([C@H]3C[C@@H]4CC[C@H]3N4)cnc2Cl)cc1 | 10.66 |
| Nc1ccc(-c2cc([C@H]3C[C@@H]4CC[C@H]3N4)cnc2Cl)cc1 | 10.47 |

Would you be so kind as to report pKi for each listed record?
1. Clc1cccc(-c2cc([C@H]3C[C@@H]4CC[C@H]3N4)cnc2Cl)c1
2. Clc1ncc([C@H]2C[C@@H]3CC[C@H]2N3)cc1-c1cccc(Br)c1
3. Fc1ccc(-c2cc([C@H]3C[C@@H]4CC[C@H]3N4)cnc2Cl)cc1

Result:
[10.89, 10.80, 10.77]
